# Test system: Calu-3
# procedure-text: cell viability relative to DMSO; higher = less toxic
# test-conditions: 72 h; 10 nM
compounds and their reported cell viability
property-label: cell viability (%)

[
  {
    "compound": "CCCn1c(=O)c2[nH]cnc2n(-c2ccc(Cl)cc2)c1=O",
    "system-tested": "Calu-3",
    "reading": 95.4
  },
  {
    "compound": "CC(=O)N(c1onc(C)c1C)S(=O)(=O)c1ccc(N)cc1",
    "system-tested": "Calu-3",
    "reading": 102
  },
  {
    "compound": "Cc1c(C(=O)NN2CCOCC2)nn(-c2ccc(Cl)cc2Cl)c1-c1ccc(I)cc1",
    "system-tested": "Calu-3",
    "reading": 113
  },
  {
    "compound": "N[C@@H](C(=O)O)c1cc(O)cc(O)c1 [dihydroxyphenylglycine]",
    "system-tested": "Calu-3",
    "reading": 90.5
  },
  {
    "compound": "C[C@H]1CC[C@H](n2c3cnccc3c3cnc(Nc4ccc5c(n4)CCN(C(=O)CO)C5)nc32)CC1",
    "system-tested": "Calu-3",
    "reading": 109
  },
  {
    "compound": "Cc1c[nH]c(=O)n(CCCN2CCN(c3ccccc3OCC(F)(F)F)CC2)c1=O",
    "system-tested": "Calu-3",
    "reading": 99
  },
  {
    "compound": "Cc1cc(=O)n(-c2ccccc2)[nH]1 [N-demethylantipyrine]",
    "system-tested": "Calu-3",
    "reading": 107
  },
  {
    "compound": "O=c1cc(N2CCOCC2)nc2c3ccccc3ccn12",
    "system-tested": "Calu-3",
    "reading": 94.4
  },
  {
    "compound": "C[C@]12CCC(=O)C[C@@H]1CC[C@@H]1[C@@H]2CC[C@]2(C)C=CC[C@@H]12",
    "system-tested": "Calu-3",
    "reading": 91.1
  },
  {
    "compound": "CCc1ccc(Cc2ccc3c(c2)[C@]2(OC3)O[C@H](CO)[C@@H](O)[C@H](O)[C@H]2O)cc1",
    "system-tested": "Calu-3",
    "reading": 92.7
  },
  {
    "compound": "C[C@H](Cc1cc2c(c(C(N)=O)c1)N(CCCO)CC2)NCCOc1ccccc1OCC(F)(F)F",
    "system-tested": "Calu-3",
    "reading": 87.2
  },
  {
    "compound": "C[C@H]1N=C(N(C)C)N=C(N)N1",
    "system-tested": "Calu-3",
    "reading": 114
  },
  {
    "compound": "O=C(Nc1ccc(C(O)(C(F)(F)F)C(F)(F)F)cc1)c1ccc(C(F)(F)F)cc1",
    "system-tested": "Calu-3",
    "reading": 105
  },
  {
    "compound": "COc1ccc(-n2nc(C(F)(F)F)cc2-c2ccc(Cl)cc2)cc1",
    "system-tested": "Calu-3",
    "reading": 104
  },
  {
    "compound": "OC[C@H]1NCC[C@@H](O)[C@@H]1O",
    "system-tested": "Calu-3",
    "reading": 103
  },
  {
    "compound": "CC1(C)CCC(C)(C)c2cc(C(=O)Nc3ccc(C(=O)O)cc3)ccc21",
    "system-tested": "Calu-3",
    "reading": 83.4
  },
  {
    "compound": "O=C(O)C(Cc1ccccc1[N+](=O)[O-])=NNc1nc(-c2ccc(Cl)c(Cl)c2)cs1",
    "system-tested": "Calu-3",
    "reading": 100
  },
  {
    "compound": "COc1cc(OC)c(C(=O)CCCN2CCCC2)c(OC)c1",
    "system-tested": "Calu-3",
    "reading": 86.3
  }
]
